Assay: Stability indicating HPLC assay and related substances on storage (Example 3)
Type: physicochemical
Details: 1 month, 40° C./75% RH
metric: M6G Assay, Corrected for the salt form (% w/w)
Give the number; % w/w is assumed, so skip it.

Solved entries:
>  <compound>
CN1CCC23c4c5ccc(O)c4OC2C(OC2OC(C(=O)O)C(O)C(O)C2O)C=CC3C1C5.CN1CCC23c4c5ccc(O)c4OC2C(OC2OC(C(=O)O)C(O)C(O)C2O)C=CC3C1C5.O=C(O)C=CC(=O)O (stereo not shown) [Morphine-6-glucuronide maleate]

>  <M6G Assay, Corrected for the salt form, % w/w>
93.75

$$$$
>  <compound>
CN1CC[C@]23c4c5ccc(O)c4O[C@H]2[C@@H](O[C@@H]2O[C@H](C(=O)O)[C@@H](O)[C@H](O)[C@H]2O)C=C[C@H]3[C@H]1C5 [Morphine-6-glucuronide base, morphine-6-β-D-glucuronide]

>  <M6G Assay, Corrected for the salt form, % w/w>
99.45

$$$$
>  <compound>
CN1CC[C@]23c4c5ccc(O)c4O[C@H]2[C@@H](O[C@@H]2O[C@H](C(=O)O)[C@@H](O)[C@H](O)[C@H]2O)C=C[C@H]3[C@H]1C5.Cl [Morphine-6-glucuronide hydrochloride]

>  <M6G Assay, Corrected for the salt form, % w/w>
87.81

$$$$

Next:
Briefly, M6G Assay, Corrected for the salt form measured for CN1CCC23c4c5ccc(O)c4OC2C(OC2OC(C(=O)O)C(O)C(O)C2O)C=CC3C1C5.CN1CCC23c4c5ccc(O)c4OC2C(OC2OC(C(=O)O)C(O)C(O)C2O)C=CC3C1C5.O=C(O)C=CC(=O)O (stereo not shown) [Morphine-6-glucuronide fumarate] : 94.76
